test: clinical; details: human, plasma, po, 4 mg
observed_property: Cmax at 1 day

For this compound ( Cc1cc2c(s1)Nc1ccccc1N=C2N1CCN(C)CC1 ), measured Cmax at 1 day is 4 to 6 ng/mL

----------
assay: clinical; settings: human, plasma, po, 6 mg
observed_property: Cmax at 1 day

For this molecule ( Cc1cc2c(s1)Nc1ccccc1N=C2N1CCN(C)CC1 ), measured Cmax at 1 day is 6 to 9 ng/mL

Hello, the source for this data is patent US20240009204A1, in case you need it.
